Where these numbers come from: patent US7118895B2

Recorded Decomposition efficiency of genistin family in defatted soybean for the following molecules
System: Crude diglycosidase
Assay: Examination of substrate concentration in the conversion into isoflavone aglycons by diglycosidase using soybean materials
Format: biochemical, Penicillium multicolor IAM7153
Settings: substrate concentration 2%, heat treatment of enzyme no, reaction time 0 h
Procedure: Into 20 mM acetate buffer of pH 4.0 was suspended 0.1 g, 0.25 g, 0.5 g, 1.0 g, or 1.5 g of each of various soybean materials (roasted soy flour (manufactured by Fuji Shokuryo K.K.), soymilk (manufactured by Gitoh Shokuhin K.K.), defatted soybean (manufactured by Fuji Seiyu K.K.), concentrated soybean protein (manufactured by Fuji Seiyu K.K.)). The pH of the suspension was measured and the liquid volume was adjusted to 4.5 mL while the pH was adjusted to 4.0 with 1N hydrochloric acid. […]
Kindly provide the number alone.

Recorded results for 3 molecules are shown here.
INSERT INTO assay_data (chemical_structure, value_measured) VALUES
  ('CC(=O)OC[C@H]1O[C@@H](Oc2cc(O)c3c(=O)c(-c4ccc(O)cc4)coc3c2)[C@H](O)[C@@H](O)[C@@H]1O', 1.8),
  ('O=C(O)CC(=O)OC[C@H]1O[C@@H](Oc2cc(O)c3c(=O)c(-c4ccc(O)cc4)coc3c2)[C@H](O)[C@@H](O)[C@@H]1O', 45.4),
  ('O=c1c(-c2ccc(O)cc2)coc2cc(O)cc(O)c12', 15.1);

Record summary for O=c1c(-c2ccc(O)cc2)coc2cc(O[C@@H]3O[C@H](CO)[C@@H](O)[C@H](O)[C@H]3O)cc(O)c12 : reported Decomposition efficiency of genistin family in defatted soybean = 37.7

* * *

tested on: Crude diglycosidase; experiment: Examination of pH in the conversion into isoflavone aglycons by diglycosidase using soybean materials; assay type: biochemical, Penicillium multicolor IAM7153; conditions: pH8.6; heat treatment of enzyme: no; reaction time 3 h
READOUT KIND: Decomposition efficiency of glycitin family in concentrated soybean protein (%)
Just the number in %, nothing appended.

INSERT INTO measurements (compound, system_under_test, value_measured) VALUES
  ('COc1cc2c(=O)c(-c3ccc(O)cc3)coc2cc1O[C@@H]1O[C@H](COC(C)=O)[C@@H](O)[C@H](O)[C@H]1O [acetylglycitin, 6″-O-acetylglycitin]', 'Crude diglycosidase', 32.6),
  ('COc1cc2c(=O)c(-c3ccc(O)cc3)coc2cc1O[C@@H]1O[C@H](CO)[C@@H](O)[C@H](O)[C@H]1O [glycitin]', 'Crude diglycosidase', 45.9),
  ('COc1cc2c(=O)c(-c3ccc(O)cc3)coc2cc1O[C@@H]1O[C@H](COC(=O)CC(=O)O)[C@@H](O)[C@H](O)[C@H]1O [malonylglycitin, 6″-O-malonylglycitin]', 'Crude diglycosidase', 0.4);

Please turn your attention to the following entry.
response.value for COc1cc2c(=O)c(-c3ccc(O)cc3)coc2cc1O [glycitein] (field: Decomposition efficiency of glycitin family in concentrated soybean protein) = 21.0

* * *

test system: Crude diglycosidase; experiment: Examination of pH in the conversion into isoflavone aglycons by diglycosidase using soybean materials; format: biochemical, Penicillium multicolor IAM7153; conditions: pH4.8; heat treatment of enzyme: no; reaction time 1 h
Recorded measurements of Decomposition efficiency of daidzin family in soymilk, one per entry
API: value field is a number in %; no unit string.

INSERT INTO assay_data (molecule, value_measured) VALUES
  ('O=c1c(-c2ccc(O)cc2)coc2cc(O)ccc12 [daidzein]', 52.6);

Attention now shifts to the item below.
The recorded Decomposition efficiency of daidzin family in soymilk for O=C(O)CC(=O)OC[C@H]1O[C@@H](Oc2ccc3c(=O)c(-c4ccc(O)cc4)coc3c2)[C@H](O)[C@@H](O)[C@@H]1O [malonyldaidzin, 6″-O-malonyldaidzin] is 47.4
